Would you mind telling me the reported growth inhibition of each entry?
assay: NCI Yeast Anticancer Drug Screen. Data for the mlh1 rad18 strain (AID 175); details: S. cerevisiae mlh1 rad18 strain growth inhibition; at 50.0 µM; hits give high values
About 79,000 compounds went through this panel and 15% of them were active in at least one assay; those are over-represented in the sample as a whole. Where a SMILES comes first, the peptide text is derived from it.
Field: numeric (%). Do not append units.

Input O=C(Nc1ccccc1-c1ccccc1)c1ccccc1 . Output growth inhibition: 26.9

Input CS(=O)(=O)N/N=C1/C=C2C/C(=N\NS(C)(=O)=O)C=C2C1 . Output growth inhibition: 43.7

Input Cc1ccccc1/C=N/NC(=O)c1cccc2ccccc12 . Output growth inhibition: 0.6

Input Cc1ccc(S(=O)(=O)Nc2ccc(C(=O)Cl)cc2)cc1 . Output growth inhibition: 11.8

Input CCCCCCCCC(=O)c1c(OC)oc(C=O)cc1=O . Output growth inhibition: 4

Input COc1ccc2ccccc2c1Cc1c(O)ccc2ccccc12 . Output growth inhibition: 8

Input CC(=O)Nc1cc(N)cc(C(=O)O)c1 . Output growth inhibition: -7.5

Input CC(C)CC(N)C(=O)NC(C)C(=O)NC(CC(C)C)C(=O)O (stereo not drawn) (H-Leu-Ala-Leu-OH; configuration not given here) . Output growth inhibition: -3.1

Input CCCC(N)S(=O)(=O)O (stereo unspecified) . Output growth inhibition: -11.2

Input Cc1ncnc(N)c1N . Output growth inhibition: 2.8

Input O=C1Nc2ccccc2C12CCNC2Cc1ccccc1 (stereo unspecified) . Output growth inhibition: -21.4

Input O=C(NC(Cc1ccccc1)C(=O)NC(Cc1c[nH]c2ccccc12)C(=O)O)OCc1ccccc1 (stereo unspecified) . Output growth inhibition: 12.2

Input O=C(O)C1=C/C(=C\C=[N+]2c3cc(O)c(OC4OC(CO)C(O)C(O)C4O)cc3CC2C(=O)[O-])CC(C(=O)O)N1 (stereo unspecified) . Output growth inhibition: 6

Input Cc1cc2c(=O)cc(-c3ccc(F)cc3)oc2c(C(=O)O)c1C . Output growth inhibition: 33.3

Input CCOC(=O)C(C)c1nc2cc(F)c(F)cc2[nH]c1=O (stereo unspecified) . Output growth inhibition: -19.4

Input COc1ccc(C(=O)c2ccc(Cl)cc2)c(O)c1OC . Output growth inhibition: -9.4

Input COC(=O)CCCC(=O)O . Output growth inhibition: 8.25

Input Nc1nc(N)c2ncn(-c3ccc(Cl)cc3)c2n1 . Output growth inhibition: 8.4

Input COC(=O)C1=C(C)N(NC(=O)c2ccccc2)C2(O)CCCC(=O)C12C (stereo unspecified) . Output growth inhibition: 23.9

Input Cn1cccc1/C=N/N=C(/N)NO . Output growth inhibition: -0.4

Input COC(=O)CC(NC(=O)C(Cc1cncn1C(=O)OCc1ccccc1)NC(=O)OCc1ccccc1)C(=O)O (stereo unspecified) . Output growth inhibition: -4.55

Input CCOC(=O)C(C(C)=O)C(CC(=O)OC)NC(=O)OCc1ccccc1 (stereo unspecified) . Output growth inhibition: -35.5

Input O=C1C=C(Nc2ccccc2C(=O)CC(=O)C(=O)Nc2cccc([N+](=O)[O-])c2)c2ccccc2C1=O . Output growth inhibition: -7.1

Input CCCCCCCC/C=C\CCCCCCCC(=O)NCCN(CCN)C(=O)CCCCCCC/C=C\CCCCCCCC . Output growth inhibition: -23.8

Input O=C1c2cccc3c(Br)ccc(c23)C(=O)N1CCCN1CCOCC1 . Output growth inhibition: 60.2

Input CCOC(=O)C(Nc1cccc2ccccc12)C(=O)OCC . Output growth inhibition: 25.7

Input CC(NC(=O)CNP(=O)(c1ccccc1)c1ccccc1)C(=O)NC(Cc1ccccc1)C(=O)OCc1ccccc1 (stereo unspecified) . Output growth inhibition: 30.1

Input C=C1C(=O)OC2CC(C)C3CC(O)OC(OCC)C3(C)CC12 (stereo unspecified) . Output growth inhibition: -16.8

Input CCOC(=O)OC1CCC2(C)C(=CCC3C2CCC2(C)C(C(C)CCCC(C)C)CCC32)C1 (stereo unspecified) . Output growth inhibition: -4.3

Input NC(Cc1ccc(B(O)O)cc1)C(=O)O (stereo unspecified) . Output growth inhibition: -4.05

Input CCCc1ccccc1NC(=O)NCCCl . Output growth inhibition: 5.6

Input CNS(=O)(=O)c1ccc(C)cc1 . Output growth inhibition: 0.35

Input CSCCC(NC(=O)c1cnc2ccccc2c1)C(N)=O (stereo unspecified) . Output growth inhibition: 14.8

Input Cn1c(=O)c2[nH]c(SC3CCCCC3)nc2n(C)c1=O . Output growth inhibition: 8.9

Input O=c1c[n+]([O-])c2ccccc2n1O . Output growth inhibition: 11.8

Input COc1ccc([N+](=O)[O-])c2c(NCC(O)CO)ccnc12 (stereo unspecified) . Output growth inhibition: -47.2
